B1: Azoarcus group I ribozyme (parent)
chain: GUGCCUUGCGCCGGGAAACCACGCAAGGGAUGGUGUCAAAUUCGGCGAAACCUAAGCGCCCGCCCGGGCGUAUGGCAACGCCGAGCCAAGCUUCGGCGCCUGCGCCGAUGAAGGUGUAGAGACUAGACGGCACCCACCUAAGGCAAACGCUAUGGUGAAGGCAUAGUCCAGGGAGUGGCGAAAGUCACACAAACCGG

Variants of: B1
Experiment: reverse-splicing fitness (ratio to wild type); higher = more active; in vitro selection; Mg2+ level not given
attribute-measured: reverse-splicing fitness
Returns: the value as a bare number; no unit string appended.

{"columns": ["mutation-key", "attribute-measured", "experimental-value"],
 "data": [
  ["C82G A111U C169U U176A", "reverse-splicing fitness", 0.0177],
  ["C82A A111C A120C A145C C169G", "reverse-splicing fitness", 0.00972]
]}

Need reverse-splicing fitness of C82U A111G A145G U176G , thanks.
0.048

Find the recorded reverse-splicing fitness belonging to A111C A120G A145U C150U C169A U176C and report it.
0.0175

// query reverse-splicing fitness value for entry C82U A111U A120U A145G C150G C169U U176C
0.0058

Cited source: the RNAGym collection of RNA variant scans (doi:10.1093/molbev/msab373)
